test: Pharmacokinetics and bioavailability in normal mice; format: in vivo, mouse; details: female, C57BL/6, iv; mouse plasma; i.v.; 10 mg/kg
Where a name gives a salt, the structure may show the parent alone.
property label: clearance (mL/min/kg)

[[record]]
molecule = "CC(C)c1ccc2oc3nc(N)c(C(=O)O)cc3c(=O)c2c1 [Amlexanox (salt), sodium salt]"
readout_unit = "mL/min/kg"
test_result = 5


====

experiment: Bioavailability and pharmacokinetics in normal rats; type: in vivo, rat; settings: female, CD, rat, plasma, iv, 100 mg/kg, rat plasma; I.V.
Structures can show the parent of a compound that is named as a salt.
property label: MRT (h)

[[record]]
compound = "CC(C)c1ccc2oc3nc(N)c(C(=O)O)cc3c(=O)c2c1 [Amlexanox (salt), sodium salt]"
property_label = "MRT"
test_result = 1.14


====

Experiment: Bioavailability and pharmacokinetics in normal rats
Type: in vivo, rat
Conditions: female, CD, iv; rat plasma; I.V.; 50 mg/kg
Protocol: Female CD rats (from 200 to 250 g body weight) were obtained from Charles River Canada Inc. (St. Constant, Quebec, Canada). […] The samples were analysed by HPLC using 250×4.6 mm, Phenomenex C18 Luna, 5 micron column, 1 mL/min flow rate of mobile phase 73% of 25 mM sodium phosphate pH 7.5 and 27% acetonitrile; fluorescent deyection λexcitation=348 nm, λemission=404 nm. […]
Where a name gives a salt, the structure may show the parent alone.
property label: clearance

[[record]]
compound = "CC(C)c1ccc2oc3nc(N)c(C(=O)O)cc3c(=O)c2c1 [Amlexanox (salt), sodium salt]"
test_result = "1.67 mL/min/kg"


====

experiment: Bioavailability and pharmacokinetics in normal rats; assay type: in vivo, rat; conditions: female, CD, rat, plasma, po, 50 mg/kg, rat plasma, salt solution
Counter-ions that a name gives are not always drawn.
property label: AUC (ng·h/mL)

[[record]]
molecule = "CC(C)c1ccc2oc3nc(N)c(C(=O)O)cc3c(=O)c2c1 [Amlexanox (salt), sodium salt]"
readout_unit = "ng·h/mL"
test_result = 4470


====

assay: Bioavailability and pharmacokinetics in normal rats; format: in vivo, rat; details: female, CD, rat, plasma, po, 100 mg/kg, rat plasma, acid suspended in 1% methyl cellulose
property label: half-life (h)

[[record]]
compound = "CC(C)c1ccc2oc3nc(N)c(C(=O)O)cc3c(=O)c2c1 [Amlexanox]"
property_label = "half-life"
readout_unit = "h"
test_result = 6.04


Every entry's value here was drawn from patent US7772255B2.
